Reported IC50, TF-1 cell proliferation by item:
# target_or_test_system: T1, human GM-CSFRα, full length on cells (human, UniProt P15509 23-400)
# T1 sequence: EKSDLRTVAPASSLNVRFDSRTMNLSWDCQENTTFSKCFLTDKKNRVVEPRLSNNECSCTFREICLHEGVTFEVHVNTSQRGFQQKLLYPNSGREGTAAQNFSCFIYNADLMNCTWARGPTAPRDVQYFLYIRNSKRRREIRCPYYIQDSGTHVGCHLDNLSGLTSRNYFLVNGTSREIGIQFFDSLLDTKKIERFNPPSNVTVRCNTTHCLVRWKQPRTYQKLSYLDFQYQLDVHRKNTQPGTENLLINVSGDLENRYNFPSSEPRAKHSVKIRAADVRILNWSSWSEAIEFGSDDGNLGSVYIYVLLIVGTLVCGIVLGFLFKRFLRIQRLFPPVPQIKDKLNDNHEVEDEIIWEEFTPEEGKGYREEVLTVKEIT
# protocol_summary: cell-based or functional assay

binder	measurement_unit	IC50, TF-1 cell proliferation
E35-scFv LA51E (scFv, V domains shown) VH: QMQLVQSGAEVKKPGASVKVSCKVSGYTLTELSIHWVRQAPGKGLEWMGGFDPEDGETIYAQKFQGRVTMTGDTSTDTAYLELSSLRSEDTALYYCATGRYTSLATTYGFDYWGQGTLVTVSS VL: EIVMTQSPATLSLSPGERATLSCRASQSVSSYLAWYQQKPGQAPRLLIYGESSRATGIPDRFSGSGSGTDFTLTISRLEPEDFAVYYCQQYDNWPYTFGQGTKLEIK	µg/mL	0.81
E35-scFv LD92Q (scFv, V domains shown) VH: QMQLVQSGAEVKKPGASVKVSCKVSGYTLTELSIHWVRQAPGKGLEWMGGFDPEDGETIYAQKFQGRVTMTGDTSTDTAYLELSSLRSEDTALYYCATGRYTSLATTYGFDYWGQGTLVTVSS VL: EIVMTQSPATLSLSPGERATLSCRASQSVSSYLAWYQQKPGQAPRLLIYGASSRATGIPDRFSGSGSGTDFTLTISRLEPEDFAVYYCQQYQNWPYTFGQGTKLEIK	µg/mL	0.328
